The reported numbers originate from paper PMC6941110.

# subject.of.test: hFADS6 (human FAD synthase isoform 6) (Homo sapiens, UniProt Q8NFF5, D505A)
# Construct: gene FLAD1; 320-residue isoform 6, FADSy domain only, lacks N-terminal FADHy domain; monomer
# Sequence (Q8NFF5 268-587 D505A): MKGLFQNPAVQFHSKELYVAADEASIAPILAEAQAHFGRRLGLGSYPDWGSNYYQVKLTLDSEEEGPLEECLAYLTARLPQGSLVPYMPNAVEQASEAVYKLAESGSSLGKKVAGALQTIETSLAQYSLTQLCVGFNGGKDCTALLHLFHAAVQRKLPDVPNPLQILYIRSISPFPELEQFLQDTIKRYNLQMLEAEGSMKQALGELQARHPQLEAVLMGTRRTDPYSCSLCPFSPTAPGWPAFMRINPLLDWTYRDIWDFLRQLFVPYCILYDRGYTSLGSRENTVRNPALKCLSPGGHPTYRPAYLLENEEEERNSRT
# protocol.description: stopped-flow flavin fluorescence, koff/kon
# Format: binding
pKd: −log10 of the molar value.
endpoint.label: pKd

{"columns": ["molecule", "measured.result"],
 "data": [
  ["Cc1cc2nc3c(=O)[nH]c(=O)nc-3n(C[C@H](O)[C@H](O)[C@H](O)COP(=O)(O)OP(=O)(O)OC[C@H]3O[C@@H](n4cnc5c(N)ncnc54)[C@H](O)[C@@H]3O)c2cc1C [FAD]", "< 6.52"]
]}

---

# subject.of.test: hFADS6 (human FAD synthase isoform 6) (Homo sapiens, UniProt Q8NFF5)
# Construct: gene FLAD1; 320-residue isoform 6, FADSy domain only, lacks N-terminal FADHy domain; monomer
# Sequence (Q8NFF5 268-587): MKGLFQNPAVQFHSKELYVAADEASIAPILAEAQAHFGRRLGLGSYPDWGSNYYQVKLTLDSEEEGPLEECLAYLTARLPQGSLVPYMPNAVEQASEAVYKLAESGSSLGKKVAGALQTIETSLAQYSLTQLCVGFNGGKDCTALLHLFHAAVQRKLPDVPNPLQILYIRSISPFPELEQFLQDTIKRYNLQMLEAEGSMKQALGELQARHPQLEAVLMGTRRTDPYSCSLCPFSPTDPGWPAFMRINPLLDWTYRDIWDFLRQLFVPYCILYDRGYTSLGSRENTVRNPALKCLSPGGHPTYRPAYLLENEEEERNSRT
# protocol.description: stopped-flow flavin fluorescence, koff/kon
# Type: binding
# measurement.parameters: read-out: Kd^FMN
pKd: −log10 of the molar value.

{"columns": ["chemical.smiles", "subject.of.test", "pKd"],
 "data": [
  ["Cc1cc2nc3c(=O)[nH]c(=O)nc-3n(C[C@H](O)[C@H](O)[C@H](O)COP(=O)(O)O)c2cc1C", "hFADS6 (human FAD synthase isoform 6) (Homo sapiens, UniProt Q8NFF5)", 7.03]
]}
